Recorded GI50 values for a group of compounds are listed next.
System: SR
Test: Cytotoxicity against human SR cells
Format: functional
Reply with just the number (in nM).

// below: answered compounds
- Compound: "OCCCCC#Cc1ccccc1C#Cc1ccccn1"
  GI50, nM: 25500
- Compound: "COc1cccc(C#Cc2ccccc2C#CCCCCO)c1"
  GI50, nM: 1900
- Compound: "COc1ccccc1C#Cc1ccccc1C#CCCCCO"
  GI50, nM: 1000

Q) For SR, give the measured GI50 of the entry OCCCCC#Cc1ccccc1C#Cc1cccs1
A) 1800

Q) For SR, give the measured GI50 of the entry OCCCCC#Cc1ccccc1C#Cc1ccccc1C(F)(F)F
A) 400

Q) For SR, give the measured GI50 of the entry CSc1ccccc1C#Cc1ccccc1C#CCCCCO
A) 3500

Q) For SR, give the measured GI50 of the entry OCCCCC#Cc1ccccc1C#Cc1cccc(C(F)(F)F)c1
A) 18300

Q) For SR, give the measured GI50 of the entry OCCCCC#Cc1ccccc1C#Cc1ccc(C(F)(F)F)cc1
A) 600

---

Test system: SF-295
Assay: Cytotoxicity against human SF295 cells
Format: functional
Please use Yes for GI50 under 20 µM and No for everything else, ties included.

Solved cases below.
- Compound: "OCCCCC#Cc1ccccc1C#Cc1ccc(O)cc1"
  Class name: "Yes"
- Compound: "N#Cc1ccc(C#Cc2ccccc2C#CCCCCO)cc1"
  Class name: "No"
- Compound: "OCCCCC#Cc1ccccc1C#Cc1cccc(C(F)(F)F)c1"
  Class name: "Yes"

Q) Identify whether the compound OCCCCC#Cc1ccccc1C#Cc1ccccc1 records GI50 below 20 µM.
A) Yes

Q) Identify whether the compound COc1ccccc1C#Cc1ccccc1C#CCCCCO records GI50 below 20 µM.
A) No

---

Recorded GI50 values for a group of molecules are listed next.
Test system: OVCAR-3
Assay: Cytotoxicity against human OVCAR-3 cells
Assay type: functional
Reply with just the number (in µM).

// below: answered molecules
- Compound: "COc1cccc(C#Cc2ccccc2C#CCCCCO)c1"
  Measure unit: "µM"
  GI50: 10.7
- Compound: "OCCCCC#Cc1ccccc1C#Cc1ccc(O)cc1"
  Measure unit: "µM"
  GI50: 14.8
- Compound: "OCCCCC#Cc1ccccc1C#Cc1ccccn1"
  Measure unit: "µM"
  GI50: 26.1

Here is the next item to consider.
Q) Annotate the molecule OCCCCC#Cc1ccccc1C#Cc1cccc(C(F)(F)F)c1 with its measured GI50.
A) 16.8

---

System: K562
Experiment: Cytotoxicity against human K562 cells
Assay type: functional
Recorded GI50 values for a group of compounds are listed next.
Reply with just the number (in µM).

- Compound: "OCCCCC#Cc1ccccc1C#Cc1cccc(C(F)(F)F)c1"
  Measure unit: "µM"
  GI50: 22.5
- Compound: "OCCCCC#Cc1ccccc1C#Cc1cccs1"
  Measure unit: "µM"
  GI50: 20.3

Here is the next item to consider.
Q) Annotate the compound OCCCCC#Cc1ccccc1C#Cc1cccc(O)c1 with its measured GI50.
A) 19.2

---

System: SF-295
Assay: Cytotoxicity against human SF295 cells
Type: functional
Please use Criterion met for GI50 under 20 µM and Criterion not met for everything else, ties included.

- Compound: "OCCCCC#Cc1ccccc1C#Cc1cccc(O)c1"
  Class name: "Criterion not met"

Q) Identify whether the compound OCCCCC#Cc1ccccc1C#Cc1ccccn1 records GI50 below 20 µM.
A) Criterion not met

Q) Identify whether the compound COc1cccc(C#Cc2ccccc2C#CCCCCO)c1 records GI50 below 20 µM.
A) Criterion met

Q) Identify whether the compound OCCCCC#Cc1ccccc1C#Cc1ccccc1C(F)(F)F records GI50 below 20 µM.
A) Criterion met

Q) Identify whether the compound OCCCCC#Cc1ccccc1C#Cc1cccs1 records GI50 below 20 µM.
A) Criterion met

All values here come from ChEMBL document CHEMBL1143665.
